quantity name: N2 permeability (Barrer)
Give just the numeric value; Barrer need not be written.

Which measured N2 permeability value corresponds to *C(C(=O)OC(C)CC)C(*)C(=O)OC(C)(C)C (repeat unit) ?
13

Which measured N2 permeability value corresponds to *CC(*)Cl (repeat unit) ?
0.0109

Which measured N2 permeability value corresponds to *Oc1ccc(Oc2ccc3c(c2)-c2nc4cc(Oc5ccc6nc7n(c6c5)C(=O)c5cc(*)ccc5-7)ccc4n2C3=O)cc1 (repeat unit) ?
0.036

Which measured N2 permeability value corresponds to *C(=C(*)c1ccc([Si](C)(C)CCCCCCCC)cc1)c1ccc(C(C)C)cc1 (repeat unit) ?
9.1

Which measured N2 permeability value corresponds to *c1ccc(-c2nnc(-c3ccc(N4C(=O)c5ccc(C(c6ccc7c(c6)C(=O)N(*)C7=O)(C(F)(F)F)C(F)(F)F)cc5C4=O)cc3)o2)cc1 (repeat unit) ?
0.61

Which measured N2 permeability value corresponds to *c1ccc(-c2cc(C)c(-c3ccc(*)c(C)c3)cc2C)cc1C (repeat unit) ?
1.6

Which measured N2 permeability value corresponds to *c1c(C)c(C)c(N2C(=O)c3ccc(Oc4cc(C(C)(C)C)cc(C)c4Oc4ccc5c(c4)C(=O)N(*)C5=O)cc3C2=O)c(C)c1C (repeat unit) ?
2.5
